Here we gather pIC50 data for Serine/threonine-protein kinase ATR (Homo sapiens, UniProt Q13535) reported by several publications.
pIC50: −log10 of the molar value.
MEASURED_ATTRIBUTE: pIC50

Form field pIC50, entry C[C@@H]1COCCN1c1cc(N2CCOC[C@@H]2C)nc2[nH]c(-c3nccs3)nc12 : 4.62

A = CNc1nc2ccccc2n1-c1nc(N2CCOC[C@H]2C)c2scc(S(=O)(=O)C(C)C)c2n1
B = Cc1cccc(C(=O)N2CCc3c(N4CCOC[C@H]4C)nc(-c4cccc5[nH]ccc45)nc3C2(C)C)c1
C = C[C@@H]1COCCN1c1nc(-c2cccc3[nH]ccc23)nc2c1CCN(C(=O)CN(C)C)C2(C)C
D = C[C@@H]1COCCN1c1nc(-n2c(N(C)C)nc3ccccc32)nc2c(S(C)(=O)=O)csc12
E = C[C@@H]1COCCN1c1nc(-c2cccc3[nH]ccc23)nc2c1CCN(C(=O)c1cccc(C(F)(F)F)c1)C2(C)C
# ascending order, key=pIC50 Respond with the label ranking, as requested.
D, E, C, B, A

----------
Literature survey of IC50 (system: Serine/threonine-protein kinase ATR (Homo sapiens)).
Sequence (Q13535 whole entry): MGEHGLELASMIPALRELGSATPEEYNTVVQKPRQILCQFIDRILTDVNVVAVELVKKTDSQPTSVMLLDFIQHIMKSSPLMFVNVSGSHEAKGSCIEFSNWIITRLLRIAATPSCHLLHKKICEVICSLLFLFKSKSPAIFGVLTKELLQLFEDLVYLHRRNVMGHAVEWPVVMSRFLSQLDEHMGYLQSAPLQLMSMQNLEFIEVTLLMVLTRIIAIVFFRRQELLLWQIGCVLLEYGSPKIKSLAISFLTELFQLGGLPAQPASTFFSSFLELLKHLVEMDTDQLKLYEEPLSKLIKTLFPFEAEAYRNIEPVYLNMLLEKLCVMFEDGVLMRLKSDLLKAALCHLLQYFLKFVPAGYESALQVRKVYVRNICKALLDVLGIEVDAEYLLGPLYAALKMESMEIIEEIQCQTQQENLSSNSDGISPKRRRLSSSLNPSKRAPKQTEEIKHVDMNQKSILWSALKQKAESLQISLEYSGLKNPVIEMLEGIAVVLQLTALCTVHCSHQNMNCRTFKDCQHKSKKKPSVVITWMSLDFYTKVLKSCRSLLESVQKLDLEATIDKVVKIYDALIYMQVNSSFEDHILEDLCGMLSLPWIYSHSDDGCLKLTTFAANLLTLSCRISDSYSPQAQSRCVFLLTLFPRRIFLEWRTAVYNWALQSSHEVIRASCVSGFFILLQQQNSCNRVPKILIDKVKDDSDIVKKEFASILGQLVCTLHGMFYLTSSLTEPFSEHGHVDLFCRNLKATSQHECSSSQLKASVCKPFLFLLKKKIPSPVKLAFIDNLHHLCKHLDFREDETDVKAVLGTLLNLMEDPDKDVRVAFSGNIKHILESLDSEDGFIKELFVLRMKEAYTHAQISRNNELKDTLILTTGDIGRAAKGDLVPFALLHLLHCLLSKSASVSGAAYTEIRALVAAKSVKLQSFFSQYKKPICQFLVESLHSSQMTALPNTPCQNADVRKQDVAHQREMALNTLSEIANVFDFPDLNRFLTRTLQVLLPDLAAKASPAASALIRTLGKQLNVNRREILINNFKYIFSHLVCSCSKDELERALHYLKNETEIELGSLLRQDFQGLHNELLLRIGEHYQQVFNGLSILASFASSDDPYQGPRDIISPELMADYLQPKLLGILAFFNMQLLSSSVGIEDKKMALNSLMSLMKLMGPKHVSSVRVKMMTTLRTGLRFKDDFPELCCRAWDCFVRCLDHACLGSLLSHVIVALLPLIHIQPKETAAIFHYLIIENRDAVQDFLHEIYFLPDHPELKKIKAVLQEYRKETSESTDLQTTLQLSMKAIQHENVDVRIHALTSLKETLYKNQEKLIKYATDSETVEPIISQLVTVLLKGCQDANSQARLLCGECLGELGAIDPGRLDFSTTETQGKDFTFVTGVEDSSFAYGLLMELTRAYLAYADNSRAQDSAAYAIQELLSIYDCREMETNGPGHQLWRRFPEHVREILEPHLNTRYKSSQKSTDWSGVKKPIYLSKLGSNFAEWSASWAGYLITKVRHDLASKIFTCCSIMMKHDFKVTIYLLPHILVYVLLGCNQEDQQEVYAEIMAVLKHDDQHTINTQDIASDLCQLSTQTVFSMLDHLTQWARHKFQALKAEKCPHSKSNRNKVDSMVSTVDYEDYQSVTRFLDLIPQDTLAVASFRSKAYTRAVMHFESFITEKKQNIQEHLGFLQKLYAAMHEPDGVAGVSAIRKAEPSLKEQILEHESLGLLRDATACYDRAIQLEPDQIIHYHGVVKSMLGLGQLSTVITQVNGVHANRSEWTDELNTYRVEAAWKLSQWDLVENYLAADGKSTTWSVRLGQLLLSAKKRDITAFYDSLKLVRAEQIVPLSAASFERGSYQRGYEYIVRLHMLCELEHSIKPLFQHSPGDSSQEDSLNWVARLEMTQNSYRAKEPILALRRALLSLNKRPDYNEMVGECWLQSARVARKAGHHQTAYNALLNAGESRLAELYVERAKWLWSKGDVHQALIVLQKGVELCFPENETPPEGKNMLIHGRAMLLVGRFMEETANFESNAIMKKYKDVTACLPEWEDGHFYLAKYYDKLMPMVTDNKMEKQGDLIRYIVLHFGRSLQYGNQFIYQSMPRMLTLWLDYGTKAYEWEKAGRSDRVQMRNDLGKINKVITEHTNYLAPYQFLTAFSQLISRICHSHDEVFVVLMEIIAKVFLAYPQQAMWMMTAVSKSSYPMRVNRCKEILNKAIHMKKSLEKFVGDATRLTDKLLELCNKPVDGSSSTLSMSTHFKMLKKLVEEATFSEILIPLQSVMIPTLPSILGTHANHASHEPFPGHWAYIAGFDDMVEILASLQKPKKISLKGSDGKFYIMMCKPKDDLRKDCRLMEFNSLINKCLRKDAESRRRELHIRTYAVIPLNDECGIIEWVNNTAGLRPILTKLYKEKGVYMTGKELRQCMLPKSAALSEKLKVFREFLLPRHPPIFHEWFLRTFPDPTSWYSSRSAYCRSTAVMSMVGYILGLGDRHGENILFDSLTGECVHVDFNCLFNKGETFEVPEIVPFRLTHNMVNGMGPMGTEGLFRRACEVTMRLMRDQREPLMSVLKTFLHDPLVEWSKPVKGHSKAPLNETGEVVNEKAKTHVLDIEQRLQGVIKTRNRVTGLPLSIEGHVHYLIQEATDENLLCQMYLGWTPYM
MEASURED_ATTRIBUTE: IC50 (nM)

Use these answered entries as a reference point.
C[C@@H]1Cn2ncc(C3CCN(S(C)(=O)=O)CC3)c2CN1c1ccnc2[nH]ccc12 tested on Serine/threonine-protein kinase ATR (Homo sapiens) gave IC50: 1

Summary: C[C@@H]1COCCN1c1nc(-c2ccnc3[nH]ccc23)nc2c(C(C)(C)O)csc12 , Serine/threonine-protein kinase ATR (Homo sapiens), IC50 = 7.9

Serine/threonine-protein kinase ATR (Homo sapiens) data for COc1cccc(C(=O)N2CCc3c(N4CCOC[C@H]4C)nc(-c4cccc5[nH]ccc45)nc3C2(C)C)c1 ; its IC50: 5

Hey, Serine/threonine-protein kinase ATR (Homo sapiens) data for C[C@@H]1COCCN1c1nc(-c2c[nH]c3ccccc23)nc2c(S(C)(=O)=O)csc12 : IC50 came out at 5

// returns IC50 for C[C@@H]1COCCN1c1nc(-c2cccc3[nH]ccc23)nc2c1CCN(S(C)(=O)=O)C2(C)C with Serine/threonine-protein kinase ATR (Homo sapiens); value = 18

The observed IC50 for CC(=O)N1CCc2c(N3CCOC[C@H]3C)nc(-c3cccc4[nH]ccc34)nc2C1(C)C when tested with Serine/threonine-protein kinase ATR (Homo sapiens) stands at 13

1 = C[C@@H]1COCCN1c1nc(-c2cccc3[nH]ccc23)nc2c1CN(C(=O)C1CC1)CC2
2 = C[C@@H]1COCCN1c1nc(-c2cccc3[nH]ccc23)nc2c1CN(C(=O)C1CCC1)C2(C)C
3 = C[C@@H]1[C@@H](C)n2ncc(C3CCN(S(C)(=O)=O)CC3)c2CN1c1ccnc2[nH]ccc12
4 = C[C@@H]1COCCN1c1nc(-c2ccnc3[nH]ccc23)nc2ccsc12
Rank by IC50 (largest to smallest). I'd appreciate it if you listed the labels in the requested order.
3, 1, 4, 2
(3: 2100 nM, 1: 111 nM, 4: 17.8 nM, 2: 7 nM)

----------
Listing of IC50 toward Serine/threonine-protein kinase ATR (Homo sapiens), each taken from a published source.
MEASURED_ATTRIBUTE: IC50 (nM)

Data point: C[C@@H]1COCCN1c1nc(-c2cccc3[nH]ccc23)nc2c1CCN(C(=O)C(C)(C)C)C2(C)C ; IC50 = 17

P = C[C@@H]1COCCN1c1cc(N2CCOC[C@@H]2C)nc2[nH]c(-c3cscn3)nc12
Q = C[C@@H]1COCCN1c1nc(-c2cccc3[nH]ccc23)nc2c1CCN(C(=O)c1ccc(F)cc1)C2(C)C
R = CC1(C)Cn2ncc(C3CCN(S(C)(=O)=O)CC3)c2CN1c1cc(Cl)nc2[nH]ccc12
S = CC(C)C(=O)N1CCc2c(N3CCOC[C@H]3C)nc(-c3cccc4[nH]ccc34)nc2C1(C)C
Sort entries by IC50 from minimum to maximum value. State the ranking by listing the labels in the requested order.
S, Q, R, P
